Hey, just so you know, these numbers are from patent US20210015937A1.

Target: T1, recombinant human LAG-3-Fc (human, UniProt P18627 23-450)
T1 construct: also called human LAG-3 (R&D Systems cat no. 2319-L3); LAG3 antigen
T1 sequence: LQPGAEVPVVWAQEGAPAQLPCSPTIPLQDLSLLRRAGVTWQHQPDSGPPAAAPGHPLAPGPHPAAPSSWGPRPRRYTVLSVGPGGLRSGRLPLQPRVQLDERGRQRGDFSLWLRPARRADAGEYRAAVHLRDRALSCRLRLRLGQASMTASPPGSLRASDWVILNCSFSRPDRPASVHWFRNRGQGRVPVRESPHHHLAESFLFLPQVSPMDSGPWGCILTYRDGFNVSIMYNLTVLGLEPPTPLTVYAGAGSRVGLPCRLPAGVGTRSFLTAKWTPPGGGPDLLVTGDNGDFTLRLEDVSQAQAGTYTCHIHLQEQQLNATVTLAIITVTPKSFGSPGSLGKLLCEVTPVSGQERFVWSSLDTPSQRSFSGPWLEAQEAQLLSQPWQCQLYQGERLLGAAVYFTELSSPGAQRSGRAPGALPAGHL
Assay: BLI (Octet); human LAG-3-Fc amine-coupled to biosensor, VH in solution, 1:1 fit
Sorting guide: entries reporting Kd beneath 30 nM go in the y pile, the rest go in the n pile.

Query: Given the entry variant 3 of VH 1.1 (VHH, 4) VHH: EVQLVESGGGVVRPGGSLRLSCAASGFTFDDYGMSWVRQAPGKGLEWVSGIHWNGGSTGYADSVKGRFTISRDNAKNSLYLQMNSLRAEDTALYYCARIPREDCSSASCYTDAIDFWGPGTMVTVSS , would its reported Kd be below 30 nM?
Reply: n

Query: Given the entry VH 1.2 (VHH, Human VH single domain antibody against LAG-3; It is VH 1.1 with S23A, P119Q, N57S and S58T; also called variant 2) VHH: EVQLVESGGGVVRPGGSLRLSCAASGFTFDDYGMSWVRQAPGKGLEWVSGIHWNGGSTGYADSVKGRFTISRDNAKNSLYLQMNSLRAEDTALYYCARIPREDCSSASCYTDAIDFWGQGTMVTVSS , would its reported Kd be below 30 nM?
Reply: n

Query: Given the entry variant 4 of VH 1.1 (VHH, 4) VHH: EVQLVESGGGVVRPGGSLRLSCAASGFTFDDYGMSWVRQAPGKGLEWVSGIHWIGGNSGYADSVKGRFTISRDNAKNSLYLQMNSLRAEDTALYYCARIPREDCSSASCYTDAIDFWGPGTMVTVSS , would its reported Kd be below 30 nM?
Reply: y

Query: Given the entry variant 7 of VH 1.1 (VHH, 4) VHH: EVQLVESGGGVVRPGGSLRLSCAASGFTFDDFGMSWVRQAPGKGLEWVSGIHWNGGNTGYADSVKGRFTISRDNAKNSLYLQMNSLRAEDTALYYCARIPREDCSVAACYTDAIDFWGPGTMVTVSS , would its reported Kd be below 30 nM?
Reply: n

Query: Given the entry variant 9 of VH 1.1 (VHH, 4) VHH: EVQLVESGGGVVRPGGSLRLSCAASGFTFDDYGMSWVRQAPGKGLEWVSGIHWNGDSTGYADSVKGRFTISRDNAKNSLYLQMNSLRAEDTALYHCARIPREDCSSASCYTDAIDFWGPGTMVTVSS , would its reported Kd be below 30 nM?
Reply: n

Query: Given the entry variant 6 of VH 1.1 (VHH, 4) VHH: EVQLVESGGGVVRPGGSLRLSCAASGFTFDDFGMSWVRQAPGKGLEWVSGIHWNSDITAYADSVKGRFTISRDNAKNSLYLQMNSLRAEDTALYYCARIPREDCSSASCYTDAIDFWGPGTMVTVSS , would its reported Kd be below 30 nM?
Reply: n

Query: Given the entry VH 1.1 (VHH, Human VH single domain antibody (Humabody) against LAG-3; also called VH single domain antibody 1.1; monovalent LAG-3 VH 1.1) VHH: EVQLVESGGGVVRPGGSLRLSCSASGFTFDDYGMSWVRQAPGKGLEWVSGIHWNGGNSGYADSVKGRFTISRDNAKNSLYLQMNSLRAEDTALYYCARIPREDCSSASCYTDAIDFWGPGTMVTVSS , would its reported Kd be below 30 nM?
Reply: n

Query: Given the entry variant 8 of VH 1.1 (VHH, 4) VHH: EVQLVESGGGVVRPGGSLRLSCAASGFTFNDYGMSWVRQAPGKGLEWVSGIHWNGGNSGYADSVKGRFTISRDNAKNSLYLQMNSLRAEDTALYYCARIPREDCSSTSCYTDAIDFWGPGTMVTVSS , would its reported Kd be below 30 nM?
Reply: y

Query: Given the entry variant 5 of VH 1.1 (VHH, 4) VHH: EVQLVESGGGVVRPGGSLRLSCAASGFTFNDFGMSWVRQAPGKGLEWVSGIHWNGGNTGYADSVKGRFTISRDNAKNSLYLQMNSLRAEDTALYYCARIPREDCSSASCYTDAIDFWGPGTMVTVSS , would its reported Kd be below 30 nM?
Reply: y

Query: Given the entry variant 1 of VH 1.1 (VHH) VHH: EVQLVESGGGVVRPGGSLRLSCAASGFTFDDYGMSWVRQAPGKGLEWVSGIHWNGGNSGYADSVKGRFTISRDNAKNSLYLQMNSLRAEDTALYYCARIPREDCSSASCYTDAIDFWGPGTMVTVSS , would its reported Kd be below 30 nM?
Reply: n
